// values below are reported pIC50
Molecular target: NMDA receptor subunits 1A/2A (Rattus norvegicus, UniProt P35439+Q00959)
Construct: clones from Dr. P. H. Seeburg)
Sequence (Q00959 20-1464 limits assumed, other chains not shown): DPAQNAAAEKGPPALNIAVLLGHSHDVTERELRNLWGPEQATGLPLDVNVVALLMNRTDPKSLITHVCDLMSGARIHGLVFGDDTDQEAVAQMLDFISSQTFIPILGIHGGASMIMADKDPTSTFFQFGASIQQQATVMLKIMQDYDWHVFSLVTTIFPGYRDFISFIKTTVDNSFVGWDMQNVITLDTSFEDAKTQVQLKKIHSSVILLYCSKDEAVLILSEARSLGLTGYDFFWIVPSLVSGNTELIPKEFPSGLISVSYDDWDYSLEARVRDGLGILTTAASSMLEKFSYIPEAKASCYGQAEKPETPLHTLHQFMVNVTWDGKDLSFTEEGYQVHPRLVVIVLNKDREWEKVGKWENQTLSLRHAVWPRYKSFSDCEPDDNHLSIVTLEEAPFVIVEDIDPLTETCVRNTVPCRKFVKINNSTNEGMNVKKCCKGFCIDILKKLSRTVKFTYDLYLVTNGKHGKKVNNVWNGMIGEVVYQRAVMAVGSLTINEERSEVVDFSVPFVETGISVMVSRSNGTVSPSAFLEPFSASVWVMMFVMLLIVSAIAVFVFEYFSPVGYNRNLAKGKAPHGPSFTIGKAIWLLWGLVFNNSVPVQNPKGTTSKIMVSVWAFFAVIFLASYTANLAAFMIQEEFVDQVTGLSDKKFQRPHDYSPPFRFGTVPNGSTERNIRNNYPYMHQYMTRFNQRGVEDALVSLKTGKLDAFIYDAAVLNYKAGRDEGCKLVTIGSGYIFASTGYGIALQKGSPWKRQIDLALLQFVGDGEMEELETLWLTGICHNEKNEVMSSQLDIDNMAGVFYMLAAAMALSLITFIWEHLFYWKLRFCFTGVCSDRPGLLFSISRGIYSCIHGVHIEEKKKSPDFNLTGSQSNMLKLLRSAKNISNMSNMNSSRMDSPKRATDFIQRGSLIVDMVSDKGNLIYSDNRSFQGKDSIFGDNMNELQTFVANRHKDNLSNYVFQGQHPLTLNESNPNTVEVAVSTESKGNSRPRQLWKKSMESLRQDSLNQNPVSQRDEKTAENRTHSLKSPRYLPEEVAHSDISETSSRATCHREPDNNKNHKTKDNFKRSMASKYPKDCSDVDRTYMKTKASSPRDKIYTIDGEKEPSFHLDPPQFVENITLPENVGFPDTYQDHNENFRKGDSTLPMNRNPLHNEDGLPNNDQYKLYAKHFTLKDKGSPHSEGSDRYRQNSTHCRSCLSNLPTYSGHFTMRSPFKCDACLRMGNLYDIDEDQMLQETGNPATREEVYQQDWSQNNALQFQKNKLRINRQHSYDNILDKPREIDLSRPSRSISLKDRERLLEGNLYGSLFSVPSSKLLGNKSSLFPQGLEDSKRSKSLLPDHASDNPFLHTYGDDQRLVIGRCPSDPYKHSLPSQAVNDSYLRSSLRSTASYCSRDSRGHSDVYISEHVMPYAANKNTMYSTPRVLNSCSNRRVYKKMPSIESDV
Assay: Electrophysiological assay at NMDA receptor subunits expressed in Xenopus oocytes, 1A/2A
Conditions: glutamate 100 μm and glycine 1-100 μm
Source text: Many of the properties of native NMDA receptors are seen in recombinant homomeric NR1 receptors. These properties are altered by the NR2 subunits. Recombinant NMDA receptors expressed in Xenopus oocytes have been studied by voltage-clamp recording, as has developmental and regional expression of the mRNAs encoding NMDA receptor subunits. Electrophysiological assays were utilized to characterize the actions of compounds at NMDA receptors expressed in Xenopus oocytes. […]
Structures can show the parent of a compound that is named as a salt.
Just the number, please; pIC50 means minus log10 of the concentration in mol/L.

Observe how each entry below is paired with its result.
O=c1[nH]c2ccc(OCCN3CCC(Cc4ccccc4)CC3)cc2o1 : 4.37
O=[N+]([O-])c1ccc(CC2CCN(CCOc3ccc(F)cc3)CC2)cc1 [Ex. 36, hydrobromide] : 4.40

q: Look up pIC50 of Cc1ccc(CC2CCN(CCOc3ccccc3O)CC2)cc1 [Ex. 161, hydrochloride] and report it.
a: 4.07

q: Look up pIC50 of Cc1ccc(CC2CCN(CCOc3ccc(O)c(C)c3)CC2)cc1 [Ex. 153, hydrochloride] and report it.
a: 4.19

q: Look up pIC50 of Clc1ccc(NC2CCN(CCCOc3ccccc3)CC2)cc1 [Ex. 40, hydrobromide] and report it.
a: 4.10

---

Molecular target: NMDA receptor subunits 1A/2A (Rattus norvegicus, UniProt P35439+Q00959)
Construct: expressed in transfected cells; host or cells: Xenopus laevis oocytes (cRNA injection; clones from Dr. P. H. Seeburg)
Experiment: Electrophysiological assay at NMDA receptor subunits expressed in Xenopus oocytes, 1A/2A
Format: cell-based
Conditions: glutamate 100 μm and glycine 1-100 μm
Structures can show the parent of a compound that is named as a salt.
// values below are reported pIC50
Just the number, please; pIC50 means minus log10 of the concentration in mol/L.

Observe how each entry below is paired with its result.
CC(C)(C)c1ccc(CC2CCN(CCOc3ccc(O)cc3)CC2)cc1 [Ex. 132, hydrochloride] : 4.64
Fc1ccc(OCCN2CCC(Nc3ccc(Cl)cc3)CC2)cc1 [Ex. 38, dihydrochloride] : 4.12
CC(CCOc1ccccc1)N1CCC(Cc2ccccc2)CC1 (stereo not shown) [Ex. 41, hydrochloride] : 4.05
O=c1[nH]c2ccc(OCCN3CC=C(Cc4ccccc4)CC3)cc2[nH]1 : 4.46
S=c1[nH]c2ccc(OCCN3CCC(Cc4ccccc4)CC3)cc2[nH]1 : 4.14

Turning now to a further record.
q: Look up pIC50 of O=[N+]([O-])c1ccccc1OCCN1CCC(Cc2ccc(Cl)cc2)CC1 and report it.
a: 4.52

---

Target: NMDA receptor subunits 1A/2B (Rattus norvegicus, UniProt P35439+Q00960)
Construct: expressed in transfected cells; host or cells: Xenopus laevis oocytes (cRNA injection; clones from Dr. P. H. Seeburg)
Sequence (Q00960 27-1482, other chains not shown): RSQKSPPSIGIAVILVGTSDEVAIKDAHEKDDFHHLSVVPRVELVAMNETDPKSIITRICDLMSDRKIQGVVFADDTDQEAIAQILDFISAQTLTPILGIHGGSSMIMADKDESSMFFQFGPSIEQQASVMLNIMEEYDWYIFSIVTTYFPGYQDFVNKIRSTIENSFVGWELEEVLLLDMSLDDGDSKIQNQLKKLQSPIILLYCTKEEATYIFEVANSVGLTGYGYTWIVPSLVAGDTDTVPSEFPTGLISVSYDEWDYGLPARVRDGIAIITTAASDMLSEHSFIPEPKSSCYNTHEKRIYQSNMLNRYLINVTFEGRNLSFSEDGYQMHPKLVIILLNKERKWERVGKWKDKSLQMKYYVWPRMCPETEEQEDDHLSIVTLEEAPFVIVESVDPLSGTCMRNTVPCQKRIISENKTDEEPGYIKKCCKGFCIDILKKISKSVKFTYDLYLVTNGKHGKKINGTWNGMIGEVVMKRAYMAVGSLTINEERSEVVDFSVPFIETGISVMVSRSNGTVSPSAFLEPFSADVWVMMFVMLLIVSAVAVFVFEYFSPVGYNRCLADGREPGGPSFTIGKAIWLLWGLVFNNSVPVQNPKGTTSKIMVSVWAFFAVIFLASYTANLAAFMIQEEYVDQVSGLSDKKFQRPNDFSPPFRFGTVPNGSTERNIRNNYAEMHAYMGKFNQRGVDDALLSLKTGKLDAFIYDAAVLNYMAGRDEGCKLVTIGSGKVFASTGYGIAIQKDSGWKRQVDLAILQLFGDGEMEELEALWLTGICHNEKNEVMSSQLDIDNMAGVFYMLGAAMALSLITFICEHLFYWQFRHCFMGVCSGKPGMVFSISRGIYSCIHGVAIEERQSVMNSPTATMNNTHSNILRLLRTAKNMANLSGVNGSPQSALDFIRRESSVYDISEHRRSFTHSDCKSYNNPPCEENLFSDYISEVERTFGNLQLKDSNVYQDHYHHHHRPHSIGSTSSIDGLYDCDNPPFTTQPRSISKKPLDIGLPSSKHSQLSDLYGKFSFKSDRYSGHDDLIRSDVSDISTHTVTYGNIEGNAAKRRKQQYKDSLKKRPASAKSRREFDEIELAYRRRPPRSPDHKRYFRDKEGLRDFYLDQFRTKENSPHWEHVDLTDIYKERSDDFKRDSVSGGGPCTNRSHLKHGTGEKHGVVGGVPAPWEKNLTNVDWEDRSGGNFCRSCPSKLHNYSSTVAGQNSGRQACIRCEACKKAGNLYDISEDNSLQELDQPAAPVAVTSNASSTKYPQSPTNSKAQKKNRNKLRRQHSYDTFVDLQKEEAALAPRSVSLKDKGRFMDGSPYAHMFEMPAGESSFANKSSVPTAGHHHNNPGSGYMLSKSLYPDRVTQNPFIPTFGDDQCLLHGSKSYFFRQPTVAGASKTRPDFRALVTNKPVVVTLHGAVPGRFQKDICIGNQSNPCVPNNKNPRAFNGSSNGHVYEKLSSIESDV
Experiment: Electrophysiological assay at NMDA receptor subunits expressed in Xenopus oocytes, 1A/2B
Type: cell-based
Details: Xenopus oocytes; glutamate 100 μm and glycine 1-100 μm; read-out: Subunits IC50, 1A/2B
pIC50: −log10 of the molar value. Counter-ions that a name gives are not always drawn.
Each entry belongs to exactly one class, chosen by where its pIC50 falls: Low (below 5), Mid (5 to below 6), High (6 or more)

OC(COc1cccc2ccccc12)CN1CCC(Cc2ccccc2)CC1 (stereo not drawn) : Mid
Cc1ccc(CC2CCN(CCOc3ccc(O)c(F)c3)CC2)cc1 [Ex. 151, hydrochloride] : High
Cc1ccc(CC2CCN(CCOc3ccc(O)cc3)CC2)cc1 [Ex. 115, hydrochloride] : High
c1ccc(COc2ccc(OCCN3CCC(Cc4ccccc4)CC3)cc2)cc1 [Ex. 98, hydrochloride] : Low

q: Input ON=Cc1cccc(OCCN2CCC(Cc3ccccc3)CC2)c1 ; output its category
a: High

q: Input Cc1ccc(CC2CCN(CCOc3ccc(F)cc3)CC2)cc1 [Ex. 116, hydrochloride] ; output its category
a: Mid

q: Input Fc1ccc(NC2CCN(CCOc3ccc(F)cc3)CC2)cc1 [Ex. 39, hydrochloride] ; output its category
a: Low

---

// values below are reported pIC50
Target: NMDA receptor subunits 1A/2C (Rattus norvegicus, UniProt P35439+Q00961)
Construct: expressed in transfected cells; host or cells: Xenopus laevis oocytes (cRNA injection; clones from Dr. P. H. Seeburg)
Sequence (Q00961 20-1237, other chains not shown): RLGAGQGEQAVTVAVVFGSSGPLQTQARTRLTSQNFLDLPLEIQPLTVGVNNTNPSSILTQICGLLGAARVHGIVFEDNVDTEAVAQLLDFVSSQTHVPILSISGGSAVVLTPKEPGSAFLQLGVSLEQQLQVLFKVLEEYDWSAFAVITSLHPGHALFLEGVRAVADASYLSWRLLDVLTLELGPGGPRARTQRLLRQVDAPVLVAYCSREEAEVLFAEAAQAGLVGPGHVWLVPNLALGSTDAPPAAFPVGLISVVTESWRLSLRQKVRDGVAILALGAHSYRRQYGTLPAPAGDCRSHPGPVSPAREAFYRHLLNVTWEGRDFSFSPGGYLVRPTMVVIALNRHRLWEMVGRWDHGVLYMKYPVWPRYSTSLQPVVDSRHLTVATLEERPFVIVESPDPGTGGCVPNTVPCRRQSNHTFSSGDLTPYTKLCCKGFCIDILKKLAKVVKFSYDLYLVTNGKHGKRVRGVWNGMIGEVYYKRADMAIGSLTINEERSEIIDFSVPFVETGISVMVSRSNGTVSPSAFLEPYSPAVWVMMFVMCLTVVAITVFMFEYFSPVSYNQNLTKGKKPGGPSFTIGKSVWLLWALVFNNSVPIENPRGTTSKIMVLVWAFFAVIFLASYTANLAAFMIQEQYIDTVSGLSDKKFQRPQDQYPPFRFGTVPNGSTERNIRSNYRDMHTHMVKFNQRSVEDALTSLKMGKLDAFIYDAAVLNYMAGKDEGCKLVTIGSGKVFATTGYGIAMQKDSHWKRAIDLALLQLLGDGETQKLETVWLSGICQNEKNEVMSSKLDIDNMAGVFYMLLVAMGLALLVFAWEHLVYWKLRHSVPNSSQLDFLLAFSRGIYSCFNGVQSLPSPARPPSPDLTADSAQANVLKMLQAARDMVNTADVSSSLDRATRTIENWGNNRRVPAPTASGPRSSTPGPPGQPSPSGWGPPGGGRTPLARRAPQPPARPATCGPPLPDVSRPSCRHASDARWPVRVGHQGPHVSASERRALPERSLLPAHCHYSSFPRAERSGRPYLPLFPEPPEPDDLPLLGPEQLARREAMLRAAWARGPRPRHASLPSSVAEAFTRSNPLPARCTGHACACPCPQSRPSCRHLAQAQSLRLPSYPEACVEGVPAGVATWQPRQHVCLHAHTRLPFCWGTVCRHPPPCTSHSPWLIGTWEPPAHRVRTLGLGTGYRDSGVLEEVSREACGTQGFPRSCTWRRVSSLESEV
Experiment: Electrophysiological assay at NMDA receptor subunits expressed in Xenopus oocytes, 1A/2C
Format: cell-based
Conditions: Xenopus oocytes; glutamate 100 μm and glycine 1-100 μm; read-out: Subunits IC50, 1A/2C
pIC50: −log10 of the molar value. Where a name gives a salt, the structure may show the parent alone.

Observe how each entry below is paired with its result.
O=c1[nH]c2ccc(OCCN3CCC(Cc4ccccc4)CC3)cc2[nH]c1=O [Ex. 58] : < 4.00
O=[N+]([O-])c1cccc(OCCN2CCC(Cc3ccccc3)CC2)c1 [Ex. 62] : < 4.00
CC(C)c1ccc(CC2CCN(CCOc3ccc(O)cc3)CC2)cc1 [Ex. 131, hydrochloride] : < 3.52
OC(COc1cccc2ccccc12)CN1CCC(Cc2ccccc2)CC1 (centres unmarked) [Ex. 3] : < 4.00

q: Look up pIC50 of N=c1[nH]c2ccc(OCCN3CCC(Cc4ccccc4)CC3)cc2[nH]1 [Ex. 172] and report it.
a: 4.30

---

Target: NMDA receptor subunits 1A/2C (Rattus norvegicus, UniProt P35439+Q00961)
Construct: expressed in transfected cells; host or cells: Xenopus laevis oocytes (cRNA injection; clones from Dr. P. H. Seeburg)
Experiment: Electrophysiological assay at NMDA receptor subunits expressed in Xenopus oocytes, 1A/2C
Assay type: cell-based
Conditions: Xenopus oocytes; glutamate 100 μm and glycine 1-100 μm; read-out: Subunits IC50, 1A/2C
Counter-ions that a name gives are not always drawn.
// values below are reported IC50

Observe how each entry below is paired with its result.
c1ccc(CCCN2CCC(Cc3ccccc3)CC2)cc1 [Ex. 84, hydrochloride] : > 100 µM
Cc1nc2cc(OCCN3CCC(Cc4ccccc4)CC3)ccc2[nH]1 [Ex. 71C] : > 100 µM
Cc1ccc(CC2CCN(CCOc3cccc(O)c3)CC2)cc1 [Ex. 160, hydrochloride] : 120 µM
Oc1ccc(CC2CCN(CCOc3ccc(F)cc3)CC2)cc1 : > 300 µM
OC1(Cc2ccccc2)CCN(CCCc2ccccc2)CC1 [Ex. 91, hydrochloride] : > 100 µM

Turning now to a further record.
q: Look up IC50 of Cc1ccc(CC2CCN(CCOc3ccc(O)c(F)c3)CC2)c(F)c1 [Ex. 149, hydrochloride] and report it.
a: 140 µM

---

Target: NMDA receptor subunits 1A/2A (Rattus norvegicus, UniProt P35439+Q00959)
Construct: clones from Dr. P. H. Seeburg)
Test: Electrophysiological assay at NMDA receptor subunits expressed in Xenopus oocytes, 1A/2A
Conditions: glutamate 100 μm and glycine 1-100 μm
Structures can show the parent of a compound that is named as a salt.
// values below are reported IC50
Give just the numeric value; µM need not be written.

Oc1ccc(OCCN2CCC(Cc3ccc(F)cc3)CC2)cc1 [Ex. 102, hydrochloride] : 60
O=c1[nH]c2cccc(OCCN3CCC(Cc4ccc(Cl)cc4)CC3)c2[nH]1 [Ex. 77] : 50
CN(CCN1CCC(Cc2ccccc2)CC1)c1ccccc1 [Ex. 143, dihydrochloride] : 190
COc1cccc(OCCN2CCC(Cc3ccccc3)CC2)c1 [Ex. 69] : 20
Oc1ccc(C2CCN(CCCCc3ccccc3)CC2)cc1 [Ex. 167] : 110

q: For NMDA receptor subunits 1A/2A (Rattus norvegicus, UniProt P35439+Q00959), give IC50 of the listed compound: Oc1ccc(OCCN2CCC(Cc3ccc(F)c(F)c3)CC2)cc1 [Ex. 122, hydrochloride]
a: 55

q: For NMDA receptor subunits 1A/2A (Rattus norvegicus, UniProt P35439+Q00959), give IC50 of the listed compound: O=c1[nH]c2ccc(OCCN3CCC(Cc4ccc(Cl)cc4)CC3)cc2[nH]1 [Ex. 80]
a: 16

q: For NMDA receptor subunits 1A/2A (Rattus norvegicus, UniProt P35439+Q00959), give IC50 of the listed compound: Oc1ccc2cc(OCCN3CCC(Cc4ccccc4)CC3)ccc2c1 [Ex. 189]
a: 7

q: For NMDA receptor subunits 1A/2A (Rattus norvegicus, UniProt P35439+Q00959), give IC50 of the listed compound: Cc1ccc(CC2CCN(CCOc3ccc(O)cc3)CC2)c(F)c1 [Ex. 134, hydrochloride]
a: 60

q: For NMDA receptor subunits 1A/2A (Rattus norvegicus, UniProt P35439+Q00959), give IC50 of the listed compound: Cc1ccc(CC2CCN(CCOc3cccc(O)c3)CC2)cc1 [Ex. 160, hydrochloride]
a: 60

q: For NMDA receptor subunits 1A/2A (Rattus norvegicus, UniProt P35439+Q00959), give IC50 of the listed compound: Oc1ccc(CCN2CCC(Cc3ccccc3)CC2)cc1 [Ex. 108, hydrochloride]
a: 62

q: For NMDA receptor subunits 1A/2A (Rattus norvegicus, UniProt P35439+Q00959), give IC50 of the listed compound: Cc1ccc(CC2(O)CCN(CCOc3ccc(O)cc3)CC2)cc1.Cl [Ex. 154, hydrochloride]
a: 250

q: For NMDA receptor subunits 1A/2A (Rattus norvegicus, UniProt P35439+Q00959), give IC50 of the listed compound: Cc1ccc(CC2CCN(CCOc3ccc(F)cc3)CC2)c(F)c1 [Ex. 133, hydrochloride]
a: 80

q: For NMDA receptor subunits 1A/2A (Rattus norvegicus, UniProt P35439+Q00959), give IC50 of the listed compound: Nc1ccccc1OCCN1CCC(Cc2ccc(Cl)cc2)CC1 [Ex. 74]
a: 60
